molecular target: monoclonal antibody DD-5; assay: Competition ELISA with monoclonal antibody DD-5; type: binding, Biozzi mice; conditions: competitor vs monoclonal antibody DD-5; plate coated with A-triCDD-RSA
Assay Readout: I50 (inhibits antibody binding by 50%)

Which I50 (inhibits antibody binding by 50%) reading was recorded for the compound Clc1cc(Cl)c(-c2ccccc2Cl)c(Cl)c1 [2,2',4,6-TCBP] ? > 10 ng

* * *

Recorded I50 (inhibits antibody binding by 50%) by entry
target: monoclonal antibody DD-6; experiment: Competition ELISA with monoclonal antibody DD-6; type: binding, Biozzi mice; settings: competitor vs monoclonal antibody DD-6; plate coated with A-triCDD-RSA

Clc1ccc2oc3c(Cl)c(Cl)c(Cl)c(Cl)c3c2c1Cl | > 150 ng
Clc1cc2oc3cc(Cl)c(Cl)cc3c2cc1Cl | 0.5 ng
O=[N+]([O-])c1cc(Cl)ccc1Cl | 700 ng
Clc1c(Cl)c(Cl)c2c(oc3c(Cl)c(Cl)c(Cl)c(Cl)c32)c1Cl | > 200 ng
O=[N+]([O-])c1c(Cl)ccc2c1Oc1cc(Cl)c(Cl)cc1O2 | > 0.004 ng

Need I50 (inhibits antibody binding by 50%), item Oc1cc(Cl)c(Cl)cc1Cl > 2000 ng

Dear colleague, I am looking for the recorded I50 (inhibits antibody binding by 50%) of the following compound: OCC(Cl)(Cl)Cl > 2000 ng

Data request, read-out I50 (inhibits antibody binding by 50%), for Clc1c(Cl)c(Cl)c2c(c1Cl)Oc1c(Cl)c(Cl)c(Cl)c(Cl)c1O2 > 200 ng

* * *

biological target: monoclonal antibody DD-4; assay: Competition ELISA with monoclonal antibody DD-4; assay type: binding, BALB/c mice; conditions: competitor vs monoclonal antibody DD-4; plate coated with A-triCDD-RSA
I50 (inhibits antibody binding by 50%) listing for selected molecules.

Clc1ccccc1 | > 2000 ng
Oc1cc(Cl)c(Cl)cc1O | > 2000 ng
O=C1C2(Cl)C3(Cl)C4(Cl)C(Cl)(Cl)C5(Cl)C3(Cl)C1(Cl)C5(Cl)C24Cl (stereo not drawn) | > 2000 ng

State its I50 (inhibits antibody binding by 50%) on monoclonal antibody DD-4: O=C(O)COc1cc(Cl)c(Cl)cc1Cl > 2000 ng

Field: I50 (inhibits antibody binding by 50%) (monoclonal antibody DD-4). Entry: OCC(Cl)(Cl)Cl > 2000 ng

Return I50 (inhibits antibody binding by 50%) measured with monoclonal antibody DD-4 given this molecule: ClC1=C(Cl)C2(Cl)C3C4C=CC(C4)C3C1(Cl)C2(Cl)Cl (stereo not drawn) > 2000 ng

Give I50 (inhibits antibody binding by 50%) (monoclonal antibody DD-4) of the following molecule: Nc1c(Cl)ccc2c1Oc1cc(Cl)c(Cl)cc1O2 > 0.01 ng

State its I50 (inhibits antibody binding by 50%) on monoclonal antibody DD-4: Clc1ccc(Cl)c(-c2c(Cl)c(Cl)c(Cl)c(Cl)c2Cl)c1Cl > 200 ng

Record lookup: for monoclonal antibody DD-4, what I50 (inhibits antibody binding by 50%) belongs to O=[N+]([O-])c1c(Cl)ccc2c1Oc1cc(Cl)c(Cl)cc1O2 ? 0.02 ng

* * *

biological target: monoclonal antibody DD-4; assay: Competition ELISA with monoclonal antibody DD-4; format: binding, BALB/c mice; conditions: competitor vs monoclonal antibody DD-4; plate coated with A-triCDD-RSA
Assay Readout: I50 (inhibits antibody binding by 50%)

Clc1cc(-c2cc(Cl)c(Cl)c(Cl)c2Cl)c(Cl)c(Cl)c1Cl [2,2',3,3',4,4',5,5'-Octa-CBP] | > 200 ng
Clc1cc(Cl)c(-c2ccccc2Cl)c(Cl)c1 [2,2',4,6-TCBP] | > 200 ng
O=C(O)COc1ccc(Cl)cc1Cl [2,4-Dichlorophenoxyacetic, 2,4-Dichlorophenoxy-acetic] | > 2000 ng
O=[N+]([O-])c1cc(Cl)ccc1Cl [2,5-Dichloronitrobenzene, 2,5-Dichloronitro-benzene] | > 2000 ng
ClC1=C(Cl)C2(Cl)C3C4CC(C5OC45)C3C1(Cl)C2(Cl)Cl (stereo not shown) [Endrin] | > 2000 ng
Clc1ccc2c(c1)Oc1c(Cl)c(Cl)c(Cl)c(Cl)c1O2 [1,2,3,4,7-penta-CDD] | > 2 ng

Recorded I50 (inhibits antibody binding by 50%) of Oc1cc(Cl)c(Cl)cc1Cl [2,4,5-Trichlorophonol] , please. > 2000 ng

The origin of these recorded values is patent US4798807A.
